Molecular target: T1, GAL4 BD-ZapD fusion (E. coli, UniProt P36680 1-247)
T1 construct: ZapD, Z-ring stabilizer of E. coli; also called pDEST-GBKT7-zapD; source: yeast two-hybrid fusion (pDEST-GBKT7-zapD in S. cerevisiae PJ69-4A, diploid after mating)
T1 sequence (looked up): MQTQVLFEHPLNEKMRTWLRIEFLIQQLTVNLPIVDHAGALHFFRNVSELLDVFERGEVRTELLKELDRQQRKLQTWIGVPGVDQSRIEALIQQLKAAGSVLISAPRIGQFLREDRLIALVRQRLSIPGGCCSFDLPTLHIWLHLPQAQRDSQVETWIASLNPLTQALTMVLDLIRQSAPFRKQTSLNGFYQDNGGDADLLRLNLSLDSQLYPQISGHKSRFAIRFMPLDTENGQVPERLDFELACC
Test: two-hybrid; GAL4 BD-ZapD with GAL4 AD-FtsZ fusions in diploid yeast grown in YNB (-Leu-Trp) at 30°C; beta-galactosidase activity in Miller units, mean of 10 independent trials
Details: partners not purified
measured-quantity: β-galactosidase activity (Miller units)
Respond numerically; units are Miller units and should not be typed.

Q: I am curious: what β-galactosidase activity value has been reported for GAL4 AD-FtsZ(NRNKRG) fusion (natural protein, E. coli | B. subtilis, FtsZ of E. coli up to the CTV; the native CTV KQAD (380-383) is replaced by the next part; also called E. coli FtsZ with the B. subtilis CTV; source: yeast two-hybrid fusion (pDEST-GADT7-ftsZ(NRNKRG) in S. cerevisiae SL3004, diploid after mating)) MFEPMELTNDAVIKVIGVGGGGGNAVEHMVRERIEGVEFFAVNTDAQALRKTAVGQTIQIGSGITKGLGAGANPEVGRNAADEDRDALRAALEGADMVFIAAGMGGGTGTGAAPVVAEVAKDLGILTVAVVTKPFNFEGKKRMAFAEQGITELSKHVDSLITIPNDKLLKVLGRGISLLDAFGAANDVLKGAVQGIAELITRPGLMNVDFADVRTVMSEMGYAMMGSGVASGEDRAEEAAEMAISSPLLEDIDLSGARGVLVNITAGFDLRLDEFETVGNTIRAFASDNATVVIGTSLDPDMNDELRVTVVATGIGMDKRPEITLVTNKQVQQPVMDRYQQHGMAPLTQEQKPVAKVVNDNAPQTAKEPDYLDIPAFLRNRNKRG ?
A: 106
